compounds and their reported Emax
- Assayed System: IL-23 mediated signalling (Homo sapiens, UniProt Q5VWK5)
- Sequence (Q5VWK5 24-629 limits assumed): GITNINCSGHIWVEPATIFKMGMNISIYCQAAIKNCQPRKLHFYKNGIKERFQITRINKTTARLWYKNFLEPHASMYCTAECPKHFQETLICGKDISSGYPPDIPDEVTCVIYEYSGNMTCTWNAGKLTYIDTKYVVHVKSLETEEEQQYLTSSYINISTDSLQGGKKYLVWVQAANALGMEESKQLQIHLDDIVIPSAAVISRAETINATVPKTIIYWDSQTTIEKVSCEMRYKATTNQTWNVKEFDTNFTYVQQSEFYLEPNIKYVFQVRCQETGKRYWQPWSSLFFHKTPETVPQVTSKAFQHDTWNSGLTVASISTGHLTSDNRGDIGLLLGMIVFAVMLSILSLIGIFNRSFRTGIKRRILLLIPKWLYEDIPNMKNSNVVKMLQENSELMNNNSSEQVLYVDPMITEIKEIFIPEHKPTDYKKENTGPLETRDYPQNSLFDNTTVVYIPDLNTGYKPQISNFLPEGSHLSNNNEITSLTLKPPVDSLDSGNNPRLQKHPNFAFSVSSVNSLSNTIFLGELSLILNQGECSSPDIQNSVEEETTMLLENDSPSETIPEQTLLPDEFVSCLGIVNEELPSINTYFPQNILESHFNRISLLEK
- Test: Functional inhibition of IL-23 mediated STAT3 signalling (phospho-STAT3 MSD) in DB cells
- Assay type: cell-based
- Condition Summary: Table 3-2; maximal inhibitory response, DB cells, hIL-23 at EC80; read-out: hIL-23 (pSTAT3) antagonist % inhibition
Where a SMILES comes first, the peptide text is derived from it. Bridges are numbered along the chain shown (N, C = ends). [ ]: non-standard residue; d: D form. 2Nal = N[C@@H](Cc1ccc2ccccc2c1)C(=O)O; AEF = NCCOc1ccc(C[C@H](N)C(=O)O)cc1; 3Pal = N[C@@H](Cc1cccnc1)C(=O)O; Aad = N[C@@H](CCCC(=O)O)C(=O)O; αMeL = CC(C)C[C@](C)(N)C(=O)O; dOrn = NCCC[C@@H](N)C(=O)O; Dab = NCC[C@H](N)C(=O)O
The reply must contain the numeric value and, after it, the unit.

Here is how some compounds turned out for Emax.
- Compound: "CNC(=O)[C@H](Cc1cccnc1)NC(=O)[C@H](CCN)NC(=O)[C@@H]1CCC(=O)NCCCC[C@H]2CC(=O)NCC(=O)N[C@@H](Cc3c[nH]c4ccccc34)C(=O)N[C@@H](CCC(N)=O)C(=O)N[C@@H](CCC(=O)N2)C(=O)N[C@@H](Cc2ccc(OCCN)cc2)C(=O)N[C@@H](Cc2ccc3ccccc3c2)C(=O)N[C@@](C)(CC(C)C)C(=O)N1"
  Emax: "100%"
- Compound: "CC(C)C[C@]1(C)NC(=O)[C@H](Cc2ccc3ccccc3c2)NC(=O)[C@H](Cc2ccc(OCCN)cc2)NC(=O)[C@@H]2CCC(=O)N[C@H](CCCNC(=O)CCC[C@@H](C(=O)N[C@@H](CCN)C(=O)N[C@@H](Cc3cccnc3)C(N)=O)NC1=O)C(=O)N[C@@H]([C@@H](C)O)C(=O)N[C@@H](C(C)C)C(=O)N[C@@H](Cc1c[nH]c3ccccc13)C(=O)N[C@@H](CCC(N)=O)C(=O)N2 [Compound 6] ([dOrn]TVWQE[AEF][2Nal][αMeL][Aad][Dab][3Pal]-NH2; lactam 1-10, N-6)"
  Emax: "104%"

Now for the compound whose Emax we want.
Prompt line: Give the measured Emax of CNC(=O)[C@H](Cc1cccnc1)NC(=O)[C@H](CCN)NC(=O)[C@@H]1CCCCNC(=O)CC[C@@H]2NC(=O)CC[C@H](NC(=O)[C@H](CCC(N)=O)NC(=O)[C@H](Cc3c[nH]c4ccccc34)NC(=O)[C@H]([C@@H](C)O)NC2=O)C(=O)N[C@@H](Cc2ccc(OCCN)cc2)C(=O)N[C@@H](Cc2ccc3ccccc3c2)C(=O)N[C@@](C)(CC(C)C)C(=O)N1 [Compound 39] (ETWQE[AEF][2Nal][αMeL]K[Dab][3Pal]-NHMe; lactam 1-9, N-5) .
Response line: 99%
